Test system: HIV-1-C recombinant virus stocks (pGEM-HIV-1-C-Δgprt-BstEII backbone)
method-description: Antiviral drug susceptibility testing of recombinant virus stocks, subtype C GPRT amplicon in HIV-1 subtype C backbone, MT4-eGFP cells
Format: cell-based
study-conditions: subtype C backbone; Clone 3 of Sample 3; FC with vs without 184V; FIG. 4
endpoint: effect of RAM M184V in RT on FC

>  <molecule>
CC(C)OC(=O)OCOP(=O)(CO[C@H](C)Cn1cnc2c(N)ncnc21)OCOC(=O)OC(C)C.O=C(O)/C=C/C(=O)O [TDF]

>  <endpoint-result>
decreases the FC

$$$$
>  <molecule>
Cc1cn([C@H]2C=C[C@@H](CO)O2)c(=O)[nH]c1=O [d4T]

>  <endpoint-result>
decreases the FC

$$$$
